# Target under test: UniProt:Q9UNQ0
# Sequence (Q9UNQ0 whole entry): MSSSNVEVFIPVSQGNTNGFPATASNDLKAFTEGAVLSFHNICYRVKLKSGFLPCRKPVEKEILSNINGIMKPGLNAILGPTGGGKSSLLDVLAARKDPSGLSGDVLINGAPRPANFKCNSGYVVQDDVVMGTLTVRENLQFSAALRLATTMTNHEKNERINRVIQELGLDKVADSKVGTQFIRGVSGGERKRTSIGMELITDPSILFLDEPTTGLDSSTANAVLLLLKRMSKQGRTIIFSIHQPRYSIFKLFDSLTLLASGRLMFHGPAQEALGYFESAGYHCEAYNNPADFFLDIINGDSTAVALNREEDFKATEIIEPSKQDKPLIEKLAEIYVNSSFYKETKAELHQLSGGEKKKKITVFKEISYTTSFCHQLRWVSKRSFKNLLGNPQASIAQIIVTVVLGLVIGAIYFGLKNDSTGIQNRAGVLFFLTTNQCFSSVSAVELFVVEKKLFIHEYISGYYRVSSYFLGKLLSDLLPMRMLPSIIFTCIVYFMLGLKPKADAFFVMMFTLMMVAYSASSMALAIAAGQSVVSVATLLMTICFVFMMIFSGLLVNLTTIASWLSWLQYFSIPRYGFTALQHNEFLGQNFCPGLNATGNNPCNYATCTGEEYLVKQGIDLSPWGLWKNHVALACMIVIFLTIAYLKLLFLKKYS
# Run description: Asymmetry efflux ratio in MDCK2 cells expressing human ABCG2 assessed as ABCG2-mediated drug transport ratio at 30 uM after 0.5 to 1 hrs by HPLC method
# Type: ADME, cell-based
Measured metric: efflux ratio at 30 µM

(1) COc1ccnc(C[S@@+]([O-])c2nc3cc(OC(F)F)ccc3[nH]2)c1OC
(2) COc1ccnc(C[S@+]([O-])c2nc3cc(OC(F)F)ccc3[nH]2)c1OC
Decide: 1 or 2 , by lowest recorded efflux ratio at 30 µM. Respond with the label that goes with your answer.
2

* * *

# Run description: Asymmetry efflux ratio in MDCK2 cells assessed as drug transport ratio at 30 uM after 0.5 to 1 hrs by HPLC method
# Type: ADME, cell-based, Canis lupus familiaris, MDCK-II
# Measurement conditions: dog, MDCK
Measured metric: efflux ratio at 30 µM

# Compound structure, Measured metric, Test result
data = [
    ("COc1ccnc(C[S@+]([O-])c2nc3cc(OC(F)F)ccc3[nH]2)c1OC", "efflux ratio at 30 µM", 1.07),
    ("COc1ccnc(C[S@@+]([O-])c2nc3cc(OC(F)F)ccc3[nH]2)c1OC", "efflux ratio at 30 µM", 1.06),
]
